Data provenance: paper PMC9274761

Let's look at some compounds and their measured viability at 48 h, 5 µM.
- experimental protocol: MTT viability assay in RPE cells
- Type: cell-based, human
- test conditions: human, retinal pigment epithelial (RPE) cells, 5 μM, read-out: percentage of RPE cell viability, 48 h
State just the number; it will be interpreted in %.

CC1=C(/C=C/C(C)=C/C=C/C(C)=C/C(=O)Nc2ccccc2N)C(C)(C)CCC1 [Compound 8]: 115
CC(C)(C)OC(=O)Nc1ccc(C(=O)/C=C/c2ccc(/C=C/C(=O)NO)cc2)cc1 [Compound 20]: 71.6
CC(C)(C)OC(=O)Nc1cccc(C(=O)/C=C/c2ccc(C(=O)NO)cc2)c1 [Compound 19]: 80.5
Cn1c(/C=C/C(=O)c2ccc(NC(=O)OC(C)(C)C)cc2)ccc1C(=O)NO [Compound 17]: 91.8
CC(C)(C)OC(=O)Nc1cccc(C(=O)/C=C/c2ccc(/C=C/C(=O)NO)cc2)c1 [Compound 4]: 71.5

Next up:
[in] Return viability at 48 h, 5 µM for the following compound: CC(C)(C)OC(=O)Nc1ccc(C(=O)/C=C/c2ccc(C(=O)NO)cc2)cc1 [Compound 18]
[out] 73.8

---

- Test system: S. mansoni adult worms
- experimental protocol: Phenotypic screening on S. mansoni adult worms
- Type: cell-based, Schistosoma mansoni
- test conditions: 20 μM, 72 h
quantity measured: percentage of activity (death induction), S. mansoni adult worms
Remember to quote the unit after the number.

Previously resolved entries follow.
CC(C)(C)OC(=O)Nc1cccc(C(=O)/C=C/c2ccc(C(=O)NO)cc2)c1 [Compound 19]: 58.6 ± 0%
Cn1c(/C=C/C(=O)c2ccc(NC(=O)OC(C)(C)C)cc2)ccc1C(=O)NO [Compound 17]: 58.6 ± 0%
CC(C)(C)OC(=O)Nc1ccc(C(=O)/C=C/c2ccc(C(=O)NO)cc2)cc1 [Compound 18]: 56.0 ± 7.8%
CC1=C(/C=C/C(C)=C/C=C/C(C)=C/C(=O)Nc2ccccc2N)C(C)(C)CCC1 [Compound 8]: 52.8 ± 2.8%

[in] Read off the recorded percentage of activity (death induction), S. mansoni adult worms for CC(C)(C)OC(=O)Nc1cccc(C(=O)/C=C/c2ccc(/C=C/C(=O)NO)cc2)c1 [Compound 4]
[out] 63.8 ± 0%

[in] Look up and report measured percentage of activity (death induction), S. mansoni adult worms for this entry: CC(C)(C)OC(=O)Nc1ccc(C(=O)/C=C/c2ccc(/C=C/C(=O)NO)cc2)cc1 [Compound 20]
[out] 40.5 ± 2.6%

---

Catalogue of viability at 48 h, 50 µM readings, one per entry.
- experimental protocol: MTT viability assay in RPE cells
- Assay type: cell-based, human
- test conditions: human, retinal pigment epithelial (RPE) cells, 50 μM, read-out: percentage of RPE cell viability, 48 h
Express your answer as a number followed by its unit.

The following compounds have reported results that may help.
CC(C)(C)OC(=O)Nc1cccc(C(=O)/C=C/c2ccc(/C=C/C(=O)NO)cc2)c1: 45.2%
CC(C)(C)OC(=O)Nc1ccc(C(=O)/C=C/c2ccc(/C=C/C(=O)NO)cc2)cc1: 45.6%
CC(C)(C)OC(=O)Nc1ccc(C(=O)/C=C/c2ccc(C(=O)NO)cc2)cc1: 43.1%

We now examine a further compound.
[in] Indicate the recorded viability at 48 h, 50 µM value for this compound: CC1=C(/C=C/C(C)=C/C=C/C(C)=C/C(=O)Nc2ccccc2N)C(C)(C)CCC1
[out] 72%
